Assay: hESC survival regulators, cell-based (AID 493140);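 further: cells exposed to compounds for four days before counting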
Conditions: human embryonic stem cell survival screen; active compounds read high
// label = 1 if survival is not less than 6, otherwise -1

- COMPOUND: "CCN(CC)CCc1nc(-c2ccccc2)no1"
  CATEGORY: -1
- COMPOUND: "O=C(Nc1ccccc1)OCC(CN1CCCCC1)OC(=O)Nc1ccccc1 (stereo unspecified)"
  CATEGORY: 1
- COMPOUND: "CC(C)(C)NCC(O)c1ccc(O)c(CO)c1 (stereo unspecified)"
  CATEGORY: 1
- COMPOUND: "CC1(C)S[C@@H]2[C@H](NC(=O)Cc3ccccc3)C(=O)N2[C@H]1C(=O)O"
  CATEGORY: -1
- COMPOUND: "CC(=O)N[C@@H](CC(C)C)C(=O)O"
  CATEGORY: -1
